Origin of the recorded values: ChEMBL document CHEMBL5579834

Test: Drug uptake in human skin fibroblast lysosomes assessed as fold change in corrected total cell fluorescence at 50 uM measured after 2 hrs by LysoTracker Red DND-99 dye based laser scanning confocal microscopy relative to control
Format: ADME, subcellular, Lysosome
QUANTITY_NAME: fold change (FC)
Response field accepts a number only; no unit should be typed.

## Input Could you tell me which fold change (FC) is on file for `C[C@@H]1[C@H]2C[C@@H](C[C@H]1OC(=O)CCN1CCOCC1)C2(C)C` ?
## Output 0.57

## Input Could you tell me which fold change (FC) is on file for `CC1(C)[C@H]2CC[C@](C)(C2)[C@H]1OC(=O)CN1CCCCC1` ?
## Output 0.6

## Input Param item = `CC1(C)[C@H]2CC[C@](C)(C2)[C@H]1OC(=O)CCN1CCCCC1` ; retrieve measured fold change (FC).
## Output 0.3

----------
Please go through the items and note down their log10 CC50 at 48 h.
Assay: Cytotoxicity against HEK293T cells assessed as reduction in cell viability measured after 48 hrs by MTT assay
Type: toxicity, cell-based, HEK-293T
Conditions: human
Friendly reminder: values = log10 of CC50 at 48 h, unit µM.

## Input Quick one: log10 CC50 at 48 h for `CC1(C)[C@H]2CC[C@](C)(C2)[C@H]1OC(=O)CN1CCOCC1` ?
## Output 2.46

## Input Param item = `CN(C)CCOc1ccc(/C(=C(/CCCl)c2ccccc2)c2ccccc2)cc1` ; retrieve measured log10 CC50 at 48 h.
## Output 1.23

## Input // lookup log10 CC50 at 48 h for `CCN1CCN(CCC(=O)O[C@H]2C(C)(C)[C@H]3CC[C@]2(C)C3)CC1`
## Output 2.55

## Input Using the record for `CC1(C)[C@H]2CC[C@](C)(C2)[C@H]1OC(=O)CCN1CCN(c2ccccc2)CC1` , report its log10 CC50 at 48 h.
## Output 1.32

## Input Can you share its log10 CC50 at 48 h? I mean this compound: `C[C@@H]1[C@H]2C[C@@H](C[C@H]1OC(=O)CN1CCCCC1)C2(C)C`
## Output 2.50

## Input Looking for the measured log10 CC50 at 48 h of `CN1CCN(CCC(=O)O[C@H]2C(C)(C)[C@H]3CC[C@]2(C)C3)CC1` , can you help?
## Output 2.66

## Input Quick one: log10 CC50 at 48 h of `CC1(C)[C@H]2CC[C@](C)(C2)[C@H]1OC(=O)CCCN1CCN(c2ccccc2)CC1` ?
## Output 1.04

## Input // lookup log10 CC50 at 48 h for `CC1(C)[C@H]2CC[C@](C)(C2)[C@H]1OC(=O)CCCN1CCCCC1`
## Output 2.66

## Input GET /values?readout=log10 CC50 at 48 h&item= `C[C@@H]1[C@H]2C[C@@H](C[C@H]1OC(=O)CN1CCN(C)CC1)C2(C)C`
## Output 2.80
